B1: TPR 5TU (parent)
chain: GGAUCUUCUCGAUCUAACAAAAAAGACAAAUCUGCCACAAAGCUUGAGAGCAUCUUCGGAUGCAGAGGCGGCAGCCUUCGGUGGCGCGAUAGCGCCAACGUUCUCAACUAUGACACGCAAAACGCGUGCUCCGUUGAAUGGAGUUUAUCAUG

# Variants of: B1
# EXPERIMENT_DESCRIPTION: polymerase ribozyme fitness, log enrichment relative to wild type (log ratio); higher = more active; in vitro selection for triplet polymerase activity
Variants at the floor of the assay were thinned out.
PROPERTY_MEASURED: polymerase ribozyme fitness (log ratio)

Would you please look over these solved cases?
# variant C38U A60C U61A C76U C87G C93A G136A G141A ; its polymerase ribozyme fitness (log ratio) = ≤ -4.2

# variant C14G A17G C32U G81A G83C ; its polymerase ribozyme fitness (log ratio) = ≤ -4.2

New cases:
GET /value?item= A39C G81A C99U C103G A107G C125U &field=polymerase ribozyme fitness (log ratio) returns ≤ -4.2

For this variant ( U13C U33A C54A C95G A98C C99A A150G ), measured polymerase ribozyme fitness (log ratio) is ≤ -4.2

Please fill in: polymerase ribozyme fitness (log ratio) reported for G84U G94U = -2.37

According to the records, this variant A39C A40C G70C G88C U109C displays polymerase ribozyme fitness (log ratio) of ≤ -4.2

The variant listed as C54G G67A U77C C87A C99U U130G shows polymerase ribozyme fitness (log ratio) equal to ≤ -4.2

What the record says about A28C U78G C96G U148G : polymerase ribozyme fitness (log ratio) is ≤ -4.2
